# pre-steady-state target cleavage rate annotations
# Tested on: MIWI (PIWIL1) piRISC loaded with L1MC piRNA (30 nt);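 note: 1 nM active piRISC with 0.1 nM target library at 33 °C single turnover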
# experiment.description: pre-steady-state target cleavage rate (min^-1); MIWI and MILI are mouse PIWI proteins and EfPiwi is from a freshwater sponge; tags in brackets are library labels; higher = faster piRNA-guided slicing of the target;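 note: 1 nM active piRISC with 0.1 nM target library at 33 °C single turnover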
# run.parameters: guide: L1MC piRNA 5'p-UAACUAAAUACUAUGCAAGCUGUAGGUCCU; auxiliary factor: 500 nM mouse GTSF1
The full ranking holds about 8,200 sequences; the median of “pre-steady-state target cleavage rate” is about 0.024, and the highest 2% start at about 1.3. Many of the other results were omitted from the sample, so the highest values are more common in it than they were.
Give the figure by itself; no unit, no explanation.

The examples below pair each entry with its known result.
biopolymer.sequence	pre-steady-state target cleavage rate
UCGAGCUUCAGCUUGCAUAGUAUUUAGUUA	1.12
UCCACCGUACAGCUUGCAUAGUAUUUAGUUA	1.18
UCCUGGAACAGGUUGCAUAGUAUUUACUUA	0.164
UCCUCCUGCAGCUUGCAUAGUAUUUAGUUA	1.1
UCCUCGUACAGCUUGCAUAGUAUUUAGUAA	0.903
UCCUCGUACAGCUUGCAUAGUAUUUAGAAA	0.363

# input Looking for the measured pre-steady-state target cleavage rate of UGGACCUACAGCUUGCAUGUAUUUAGUUA , can you help?
# output 0.353

# input What would you report for UCCUCUCUACAGCUUGCAUAGUAUUUAGUUA ?
# output 0.797

# input Could you do the same for UCCUGGUACAGCUUGCAUAGUAAUUAGAUA , please?
# output 0.209

# input Param item: AGGACCUACAGCUUGCAUGGUAUUUAGUUA
# output 1.35

# input Lookup UGGACCUACAGCUUACAUAGUAUUUAGUUA
# output 1.53
